B1: NP_015628.1 (parent)
chain: EQRNSRWNTVLRAVKAKTHHLEP

Variants of: B1
Assay: protein stability index of a GFP-peptide fusion (GPS, HEK-293T) (PSI 1-6); higher = more stable;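 also: lentivirally expressed fusion library, cells FACS-sorted into six equal-sized GFP/DsRed ratio bins, PSI computed from sequencing read fractions per bin weighted by bin number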
Conditions: c terminus: native
endpoint.name: protein stability index
// no unit string in output, number only

Please review the entries below; each comes with its answer.
# macromolecule.sequence, observed.measurement
records = [
    ("EQRNSRWNTVERAVKAKTHHLEP", 4.36),
    ("EQRNSRWNTVLRTVKAKTHHLEP", 2.97),
    ("EQRNSRWNWVLRAVKAKTHHLEP", 2.3),
    ("EQRPSRWNTVLRAVKAKTHHLEP", 2.67),
]

Here is another variant to look at.
q: Would you kindly share the measured protein stability index for `EQRNSRWNTVLRAVNAKTHHLEP` ?
a: 3.17
